Species on record: Rattus norvegicus
Experiment: DrugMatrix - Regimen: Daily Repeat
Assay type: toxicity, organism-based, Sprague-Dawley
Parameters: regimen Daily Repeat, gender Male, age 6-8 weeks
Conditions: in vivo, po, 0 mg/kg, 120 h, tissue Plasma, route oral GAVAGE, dose level Control, time 5 day, vehicle .5 % CMC
// reported TOTAL PROTEIN for each item listed
Form entry: value (G/DL) — number only.

[
  {
    "compound": "CCCN1C[C@H](CSC)C[C@@H]2c3cccc4[nH]cc(c34)C[C@H]21 [PERGOLIDE]",
    "measurement-units": "G/DL",
    "experimental-result": 6.1
  },
  {
    "compound": "CC(C)(C)NC(=O)[C@@H]1C[C@@H]2CCCC[C@@H]2CN1C[C@@H](O)[C@H](Cc1ccccc1)NC(=O)[C@H](CC(N)=O)NC(=O)c1ccc2ccccc2n1",
    "measurement-units": "G/DL",
    "experimental-result": 5.98
  },
  {
    "compound": "N=C(N)NCCN1CCCCCCC1 [GUANETHIDINE]",
    "measurement-units": "G/DL",
    "experimental-result": 6.32
  }
]

# input compound: O=C(CCCN1CC=C(n2c(=O)[nH]c3ccccc32)CC1)c1ccc(F)cc1 [DROPERIDOL] ; wanted: its TOTAL PROTEIN
6.77

# input compound: CCCCc1oc2ccccc2c1C(=O)c1cc(I)c(OCCN(CC)CC)c(I)c1 [AMIODARONE] ; wanted: its TOTAL PROTEIN
6.55

# input compound: CC1CC(OC(=O)C(O)c2ccccc2)CC(C)(C)C1 (centres undefined) [CYCLANDELATE] ; wanted: its TOTAL PROTEIN
6.32

# input compound: COc1nc(C)nc(Cl)c1N=C1NCCN1 [MOXONIDINE] ; wanted: its TOTAL PROTEIN
6.1

# input compound: Nc1ccn([C@H]2CC[C@@H](CO)O2)c(=O)n1 [ZALCITABINE] ; wanted: its TOTAL PROTEIN
6.1

# input compound: CN1CCN(CCCN2c3ccccc3Sc3ccc(Cl)cc32)CC1 [PROCHLORPERAZINE] ; wanted: its TOTAL PROTEIN
6.03

###

Species on record: Rattus norvegicus
Test: DrugMatrix - Regimen: Daily Repeat
Format: toxicity, organism-based, Sprague-Dawley
Design: regimen Daily Repeat, gender Male, age 6-8 weeks
Conditions: in vivo, po, 35 mg/kg, 72 h, tissue Blood, route oral GAVAGE, dose level Low, time 3 day, […]
assay-endpoint: ABSOLUTE BASOPHIL (cells/µL)
Form entry: value (cells/µL) — number only.

# input compound: Cc1ccc(-c2cc(C(F)(F)F)nn2-c2ccc(S(N)(=O)=O)cc2)cc1 ; wanted: its ABSOLUTE BASOPHIL
23.3

###

Species: Rattus norvegicus
Experiment: DrugMatrix - Regimen: Daily Repeat
Assay type: toxicity, organism-based, Sprague-Dawley
Set-up: regimen Daily Repeat, gender Male, age 6-8 weeks
Conditions: in vivo, po, 0 mg/kg, 120 h, tissue Plasma, route oral GAVAGE, dose level Control, time 5 day, […]
The label depends only on POTASSIUM: t if it is at least 6 MEQ/L, f if it is smaller.

Before answering, review these 10 worked examples.
[
  {
    "molecule": "O=NN(CCCl)C(=O)NC1CCCCC1 [LOMUSTINE]",
    "assigned-class": "t"
  },
  {
    "molecule": "CC(C)(Oc1ccc(Cl)cc1)C(=O)O [CLOFIBRIC ACID]",
    "assigned-class": "t"
  },
  {
    "molecule": "CC(C)C(=O)Nc1ccc([N+](=O)[O-])c(C(F)(F)F)c1 [FLUTAMIDE]",
    "assigned-class": "f"
  },
  {
    "molecule": "Cc1oncc1C(=O)Nc1ccc(C(F)(F)F)cc1 [LEFLUNOMIDE]",
    "assigned-class": "f"
  },
  {
    "molecule": "C[C@@H]1CN(c2c(F)c(N)c3c(=O)c(C(=O)O)cn(C4CC4)c3c2F)C[C@H](C)N1 [SPARFLOXACIN]",
    "assigned-class": "t"
  },
  {
    "molecule": "CCOC(=O)C1=C(COCCN)NC(C)=C(C(=O)OC)C1c1ccccc1Cl (centres undefined) [AMLODIPINE]",
    "assigned-class": "t"
  },
  {
    "molecule": "OC(Cn1cncn1)(Cn1cncn1)c1ccc(F)cc1F [FLUCONAZOLE]",
    "assigned-class": "t"
  },
  {
    "molecule": "Cc1ccc(-c2cc(C(F)(F)F)nn2-c2ccc(S(N)(=O)=O)cc2)cc1 [CELECOXIB]",
    "assigned-class": "t"
  },
  {
    "molecule": "O=c1oc2ccccc2c(O)c1Cc1c(O)c2ccccc2oc1=O [DICUMAROL]",
    "assigned-class": "f"
  },
  {
    "molecule": "O=C(O)CCCc1ccc(N(CCCl)CCCl)cc1 [CHLORAMBUCIL]",
    "assigned-class": "t"
  }
]

Could you verify whether the entry CCC(C)n1ncn(-c2ccc(N3CCN(c4ccc(OCC5COC(Cn6cncn6)(c6ccc(Cl)cc6Cl)O5)cc4)CC3)cc2)c1=O (centres undefined) [ITRACONAZOLE] shows POTASSIUM of no less than 6 MEQ/L?
t

Could you verify whether the entry CN(C)c1nc(N(C)C)nc(N(C)C)n1 [ALTRETAMINE] shows POTASSIUM of no less than 6 MEQ/L?
t

Could you verify whether the entry C[C@H]1O[C@@H](O[C@H]2[C@@H](O)C[C@H](O[C@H]3[C@@H](O)C[C@H](O[C@H]4CC[C@@]5(C)[C@H](CC[C@@H]6[C@@H]5C[C@@H](O)[C@]5(C)[C@@H](C7=CC(=O)OC7)CC[C@]65O)C4)O[C@@H]3C)O[C@@H]2C)C[C@H](O)[C@@H]1O [DIGOXIN] shows POTASSIUM of no less than 6 MEQ/L?
f
